ASSAYED SYSTEM: Aminopeptidase N (Plasmodium falciparum FcB1/Columbia)
Sequence (O96935 whole entry): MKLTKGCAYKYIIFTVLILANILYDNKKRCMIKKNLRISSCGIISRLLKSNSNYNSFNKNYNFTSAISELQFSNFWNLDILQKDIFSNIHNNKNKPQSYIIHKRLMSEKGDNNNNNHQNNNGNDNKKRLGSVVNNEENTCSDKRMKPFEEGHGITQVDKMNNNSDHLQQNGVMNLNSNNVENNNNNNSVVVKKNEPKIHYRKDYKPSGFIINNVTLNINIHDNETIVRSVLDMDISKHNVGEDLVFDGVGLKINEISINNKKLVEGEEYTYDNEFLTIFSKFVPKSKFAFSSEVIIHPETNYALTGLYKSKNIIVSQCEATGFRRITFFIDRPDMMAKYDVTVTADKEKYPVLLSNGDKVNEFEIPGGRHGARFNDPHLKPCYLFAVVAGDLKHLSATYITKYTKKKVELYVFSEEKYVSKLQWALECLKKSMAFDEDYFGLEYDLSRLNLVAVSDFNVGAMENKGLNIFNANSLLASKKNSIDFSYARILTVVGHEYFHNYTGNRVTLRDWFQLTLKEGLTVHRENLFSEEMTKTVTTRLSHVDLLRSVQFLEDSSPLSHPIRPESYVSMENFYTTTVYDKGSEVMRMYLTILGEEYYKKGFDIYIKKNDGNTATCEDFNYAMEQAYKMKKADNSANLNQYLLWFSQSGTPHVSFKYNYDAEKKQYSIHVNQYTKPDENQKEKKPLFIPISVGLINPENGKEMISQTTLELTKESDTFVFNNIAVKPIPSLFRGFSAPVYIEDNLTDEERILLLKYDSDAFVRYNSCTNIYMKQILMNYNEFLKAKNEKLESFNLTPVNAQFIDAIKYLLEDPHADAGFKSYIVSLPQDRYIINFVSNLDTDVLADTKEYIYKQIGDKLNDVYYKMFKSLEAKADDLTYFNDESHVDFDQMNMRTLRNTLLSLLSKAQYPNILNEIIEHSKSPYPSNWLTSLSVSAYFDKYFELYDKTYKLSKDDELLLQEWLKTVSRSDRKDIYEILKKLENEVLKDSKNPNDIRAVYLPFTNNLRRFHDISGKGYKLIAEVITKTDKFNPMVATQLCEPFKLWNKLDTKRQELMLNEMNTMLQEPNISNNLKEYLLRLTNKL
ASSAY INFO: malaria alanyl aminopeptidase activity blockers – biochemical, fluorogenic H-Leu-NHMec substrate, 1536-well (AID 1445)
Parameters: species or system Plasmodium falciparum 3D7, 3D7
Active and inactive are the calls of the source.
VALUE TYPE: IC50

{"columns": ["CHEM SMILES", "ASSAYED SYSTEM", "VALUE TYPE", "OBSERVED VALUE"],
 "data": [
  ["CC/C(NNC(=O)c1ccccc1O)=C1/C(=O)NC(=O)N(Cc2ccccc2)C1=O", "Aminopeptidase N (Plasmodium falciparum FcB1/Columbia)", "IC50", "7.8 µM (active)"],
  ["COc1ccc(C(=O)NNC(=O)CSc2nnc(-c3ccc(O)cc3)n2C)cc1", "Aminopeptidase N (Plasmodium falciparum FcB1/Columbia)", "IC50", "56.8 µM (active)"],
  ["CCCc1cc(=O)oc2c(CN(CC)CC)c(O)c(Cl)cc12", "Aminopeptidase N (Plasmodium falciparum FcB1/Columbia)", "IC50", "37 µM (active)"],
  ["CC(=O)N1C(=O)/C(=C2\\SC(=S)N(NS(=O)(=O)c3ccc(C)cc3)C2=O)c2ccccc21", "Aminopeptidase N (Plasmodium falciparum FcB1/Columbia)", "IC50", "3.22 µM (active)"],
  ["Cc1ccc(C)c(N2C(=N)S/C(=C\\c3ccc(-c4ccccc4C(=O)O)o3)C2=O)c1", "Aminopeptidase N (Plasmodium falciparum FcB1/Columbia)", "IC50", "10.4 µM (active)"],
  ["COc1ccc(S(=O)(=O)NC2=NC(=O)/C(=C\\c3ccco3)S2)cc1", "Aminopeptidase N (Plasmodium falciparum FcB1/Columbia)", "IC50", "99.1 µM (active)"]
]}

###

ASSAYED SYSTEM: Polyadenylate-binding protein 1 (Homo sapiens, UniProt P11940)
Sequence (P11940 whole entry, the tested form may be a part): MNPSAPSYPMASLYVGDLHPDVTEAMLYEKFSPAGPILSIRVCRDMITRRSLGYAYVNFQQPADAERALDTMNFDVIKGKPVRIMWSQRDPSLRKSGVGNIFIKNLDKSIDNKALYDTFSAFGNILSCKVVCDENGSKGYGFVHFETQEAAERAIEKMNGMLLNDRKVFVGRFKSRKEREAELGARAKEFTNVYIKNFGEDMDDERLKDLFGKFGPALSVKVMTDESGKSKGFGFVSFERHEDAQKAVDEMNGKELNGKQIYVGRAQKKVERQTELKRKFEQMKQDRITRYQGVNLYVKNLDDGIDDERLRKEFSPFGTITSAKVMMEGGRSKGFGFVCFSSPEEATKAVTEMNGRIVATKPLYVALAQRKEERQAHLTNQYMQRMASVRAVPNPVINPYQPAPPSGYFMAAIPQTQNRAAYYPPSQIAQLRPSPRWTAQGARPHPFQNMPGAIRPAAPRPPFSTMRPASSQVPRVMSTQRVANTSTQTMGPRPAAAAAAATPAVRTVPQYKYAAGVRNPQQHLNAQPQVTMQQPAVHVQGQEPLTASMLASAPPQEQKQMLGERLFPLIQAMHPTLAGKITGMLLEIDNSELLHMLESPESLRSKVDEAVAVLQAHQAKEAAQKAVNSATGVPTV
ASSAY INFO: MLLE domain peptide-binding blockers, IC50 – biochemical, fluorescence polarization, FITC-PAM2 peptide, dose response (AID 602259)
Type: functional
MEASUREMENT CONTEXT: read-out: IC50_Mean
Active and inactive are the calls of the source.

{"columns": ["COMPOUND", "IC50"],
 "data": [
  ["Cc1cccc(CC(=O)N2CCN=C2SCc2ccc([N+](=O)[O-])cc2)c1", "> 66 µM (inactive)"],
  ["O=C(Cc1ccc2c(c1)CCCC2)Nc1ccccc1Br", "> 66 µM (inactive)"],
  ["Cc1ccc(S(=O)(=O)N=C(S)NC2CCCCC2)cc1", "> 66 µM (inactive)"],
  ["Cc1ccc(-n2c(C)cc3c2CCCC3=O)cc1", "41.2 µM (inactive)"],
  ["Cc1cc(NC(=O)CSc2nccn2-c2cccc(Cl)c2)no1", "> 66 µM (inactive)"],
  ["O=C(c1ccccc1)N(CCO)Cc1cc2cc3c(cc2nc1O)OCCO3", "> 66 µM (inactive)"],
  ["COc1ccc(C(=S)N2CCN(c3ccccc3C)CC2)cc1", "> 66 µM (inactive)"],
  ["O=C(CSc1ccc2nnc(-c3ccccc3)n2n1)N1CCCCC1", "> 66 µM (inactive)"],
  ["Cc1cc(C)cc(NC(S)=Nc2ccc(Cl)c(Cl)c2)c1", "> 66 µM (inactive)"],
  ["COCCn1c(SCC(=O)NCC2CCCO2)nc2c(c1=O)SCC2 (stereo not drawn)", "> 66 µM (inactive)"],
  ["CC(C)c1nnc(SCC(=O)NCCC2=CCCCC2)n1N", "> 66 µM (inactive)"],
  ["CC1CC(C)(C)NC(=S)S1 (stereo not drawn)", "> 66 µM (inactive)"],
  ["Cc1cccc(NC2(C(F)(F)F)N=C3SCCN3C2=O)n1 (stereo not drawn)", "> 66 µM (inactive)"]
]}

###

# EC50 values compiled below
ASSAYED SYSTEM: RNA-binding protein pos-1 (Caenorhabditis elegans, UniProt G5EF15)
Sequence (G5EF15 whole entry): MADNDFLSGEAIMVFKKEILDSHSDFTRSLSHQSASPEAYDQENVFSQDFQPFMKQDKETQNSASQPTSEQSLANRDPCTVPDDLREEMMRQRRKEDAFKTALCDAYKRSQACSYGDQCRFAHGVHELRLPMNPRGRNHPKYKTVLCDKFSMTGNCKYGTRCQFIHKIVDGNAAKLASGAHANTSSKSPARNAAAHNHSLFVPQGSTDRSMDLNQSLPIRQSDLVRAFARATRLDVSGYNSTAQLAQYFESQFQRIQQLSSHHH
ASSAY INFO: disruptors of C. elegans POS-1 RNA interaction – biochemical, fluorescence polarization, dose response (AID 1964);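 further: purified POS-1 fused to maltose binding protein made in E. coli; potency of compounds blocking POS-1 binding to fluorescent RNA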
Activity calls are given as the source filed them.

{"columns": ["MOLECULE", "EC50"],
 "data": [
  ["O=C(c1ccco1)N1CCc2ccccc21", "> 300 µM (not active)"],
  ["Cc1cccn2c(=O)c3cc(S(=O)(=O)c4ccccc4)c(=N)n(CC4CCCO4)c3nc12 (stereo not drawn)", "5.7 µM (inconclusive)"],
  ["CN(C)c1ccc(/C=N/NC2=NS(=O)(=O)c3ccccc32)cc1", "39.3 µM (active)"],
  ["CC(C)CNC(=O)C1Nc2ccc(OC(F)(F)F)cc2C2C=CCC12 (stereo not drawn)", "> 300 µM (not active)"],
  ["O=C(N/N=C/c1cc(Cl)cc([N+](=O)[O-])c1O)c1ccc2c(c1)OCO2", "127 µM (active)"],
  ["CCOn1c(=O)c(-c2cc3ccccc3o2)[n+]([O-])c2ccccc21", "13.4 µM (inconclusive)"],
  ["O=C1NC(=O)C(=Cc2ccc(-c3ccc(S(=O)(=O)N4CCOCC4)cc3)o2)C(=O)N1", "40.5 µM (active)"],
  ["O=C(O)c1ccccc1N(c1ccccc1)c1ccccc1", "> 300 µM (not active)"],
  ["CCN(CC)c1ccc2cc(NC(=O)CCC(=O)O)c(=O)oc2c1", "120 µM (inconclusive)"],
  ["CC(=O)c1cc(NC(=O)c2cccc(C(F)(F)F)c2)c(=O)oc1/C=C/N(C)C", "> 300 µM (not active)"],
  ["CS(=O)(=O)Oc1ccc2c(c1)O/C(=C\\C=C\\c1ccccc1)C2=O", "5.46 µM (active)"],
  ["CCOC(=O)c1c(/N=C/C2C(=O)NC(=S)NC2=O)sc(C)c1C", "> 300 µM (not active)"],
  ["Cc1nnc(N2C(=O)C(O)=C(C(=O)c3ccco3)C2c2ccc(C(C)(C)C)cc2)s1 (stereo not drawn)", "24.9 µM (active)"],
  ["Cc1cc(C=O)c(C)n1-c1ccc(Cl)c(C(=O)O)c1", "> 300 µM (not active)"],
  ["Cc1cccc(/C=C(\\C(=O)C(=O)O)c2ccc3ccccc3n2)c1", "27.2 µM (active)"],
  ["CCOC(=O)N1CCN(CC(=O)c2ccc(O)cc2O)CC1", "157 µM (active)"],
  ["O=C1NC(=O)N(Cc2ccccc2)C(=O)/C1=C/NNC(=O)c1ccncc1", "43.9 µM (active)"],
  ["O=C(NNC(=O)c1ccccc1[N+](=O)[O-])/C(O)=C/C(=O)c1ccccc1", "70 µM (active)"]
]}
